Entries and their measured koff follow.
- test_target: T1, recombinant human ASM protein (human, UniProt P17405 47-630)
- T1 construct: Recombinant human ASM in solution; also called acid sphingomyelinase (ASM) protein
- T1 sequence: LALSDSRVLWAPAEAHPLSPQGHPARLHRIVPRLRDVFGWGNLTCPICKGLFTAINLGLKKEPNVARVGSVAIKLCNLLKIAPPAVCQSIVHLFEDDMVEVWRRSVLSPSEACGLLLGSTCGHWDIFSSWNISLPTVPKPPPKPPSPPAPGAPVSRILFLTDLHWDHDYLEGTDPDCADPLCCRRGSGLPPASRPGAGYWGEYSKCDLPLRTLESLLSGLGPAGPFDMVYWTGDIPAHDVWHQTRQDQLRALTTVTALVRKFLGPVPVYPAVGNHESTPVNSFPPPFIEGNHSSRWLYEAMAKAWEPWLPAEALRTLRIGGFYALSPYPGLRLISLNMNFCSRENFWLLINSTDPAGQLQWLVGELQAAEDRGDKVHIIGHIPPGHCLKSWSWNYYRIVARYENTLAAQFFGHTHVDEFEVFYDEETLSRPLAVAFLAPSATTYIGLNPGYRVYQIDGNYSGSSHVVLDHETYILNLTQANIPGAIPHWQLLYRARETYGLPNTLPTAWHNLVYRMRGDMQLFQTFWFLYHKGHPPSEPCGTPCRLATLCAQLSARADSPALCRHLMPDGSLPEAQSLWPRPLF
- experimental_details: BLI (Octet), antibody on AHC sensor
- Procedure: The binding affinity, to the ASM protein, of the produced antibodies specifically binding to the ASM protein and the interactive dynamics therebetween were measured using an Octet® QK384 system (Pall Life Sciences). First, an antibody specifically binding to the ASM protein produced in Example 1 was captured using an anti-human IgG Fc capture (AHC) biosensor, and 1.25, 2.5, 5, 10, or 20 nM recombinant human ASM protein solution was added thereto. […]
Supply the numeric figure in s⁻¹, leaving out any unit text.

{"columns": ["binder", "val"],
 "data": [
  ["#9104v-L52 (antibody, human IgG4 S228P, lambda, V domains shown, Full-length IgG, lambda) VH: EVQLLESGGGLVQPGGSLRLSCAASGFTFSNYYMSWVRQAPGKGLEWVSGIYYGSGNIYYADSVKGRFTISRDNSKNTLYLQMNSLRAEDTAVYYCARDTPGFDYWGQGTLVTVSS VL: QSVLTQPPSASGTPGQRVTISCTGSSSNIGNNAVNWYQQLPGTAPKLLIYYDVHRPRGVPDRFSGSKSGTSASLAISGLRSEDEADYYCGAWDYSLSAYVFGGGTKLTVLG", 0.000264],
  ["#9104v-L11 (antibody, human IgG4 S228P, lambda, V domains shown, Full-length IgG, lambda) VH: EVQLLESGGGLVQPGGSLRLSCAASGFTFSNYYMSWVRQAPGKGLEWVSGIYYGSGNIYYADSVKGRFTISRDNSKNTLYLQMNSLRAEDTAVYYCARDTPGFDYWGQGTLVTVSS VL: QSVLTQPPSASGTPGQRVTISCTGSSSNIGNNAVNWYQQLPGTAPKLLIYYDIFQPSGVPDRFSGSKSGTSASLAISGLRSEDEADYYCGAWDYSLSAYVFGGGTKLTVLG", 0.000199]
]}

Please report the recorded koff for #9104v-L21 (antibody, human IgG4 S228P, lambda, V domains shown, Full-length IgG, lambda) VH: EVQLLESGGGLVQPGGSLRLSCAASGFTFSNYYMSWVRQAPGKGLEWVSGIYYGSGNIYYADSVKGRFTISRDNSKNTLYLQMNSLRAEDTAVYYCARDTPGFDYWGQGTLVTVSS VL: QSVLTQPPSASGTPGQRVTISCTGSSSNIGNNAVNWYQQLPGTAPKLLIYYDMFRPNGVPDRFSGSKSGTSASLAISGLRSEDEADYYCGAWDYSLSAYVFGGGTKLTVLG . 0.000135

Reported koff, binder #9104v-L29 (antibody, human IgG4 S228P, lambda, V domains shown, Full-length IgG, lambda) VH: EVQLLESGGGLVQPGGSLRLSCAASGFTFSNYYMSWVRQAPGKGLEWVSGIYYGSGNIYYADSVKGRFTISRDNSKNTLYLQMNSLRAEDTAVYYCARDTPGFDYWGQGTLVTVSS VL: QSVLTQPPSASGTPGQRVTISCTGSSSNIGNNAVNWYQQLPGTAPKLLIYYDSFRSTGVPDRFSGSKSGTSASLAISGLRSEDEADYYCGAWDYSLSAYVFGGGTKLTVLG : ____ 0.000292
